Recorded values, source patent US20240358842A1.

// values below are reported pKd
biological target: USP7 CD + UBL 1-5 (Homo sapiens); construct: USP7 CD +; assay: Surface plasmon resonance assay (SPR); format: binding; conditions: steady-state KD; read-out: SPR USP7 CD + UBL 1-5 (KD_ss)
Sequence (Q93009 208-1102 limits assumed): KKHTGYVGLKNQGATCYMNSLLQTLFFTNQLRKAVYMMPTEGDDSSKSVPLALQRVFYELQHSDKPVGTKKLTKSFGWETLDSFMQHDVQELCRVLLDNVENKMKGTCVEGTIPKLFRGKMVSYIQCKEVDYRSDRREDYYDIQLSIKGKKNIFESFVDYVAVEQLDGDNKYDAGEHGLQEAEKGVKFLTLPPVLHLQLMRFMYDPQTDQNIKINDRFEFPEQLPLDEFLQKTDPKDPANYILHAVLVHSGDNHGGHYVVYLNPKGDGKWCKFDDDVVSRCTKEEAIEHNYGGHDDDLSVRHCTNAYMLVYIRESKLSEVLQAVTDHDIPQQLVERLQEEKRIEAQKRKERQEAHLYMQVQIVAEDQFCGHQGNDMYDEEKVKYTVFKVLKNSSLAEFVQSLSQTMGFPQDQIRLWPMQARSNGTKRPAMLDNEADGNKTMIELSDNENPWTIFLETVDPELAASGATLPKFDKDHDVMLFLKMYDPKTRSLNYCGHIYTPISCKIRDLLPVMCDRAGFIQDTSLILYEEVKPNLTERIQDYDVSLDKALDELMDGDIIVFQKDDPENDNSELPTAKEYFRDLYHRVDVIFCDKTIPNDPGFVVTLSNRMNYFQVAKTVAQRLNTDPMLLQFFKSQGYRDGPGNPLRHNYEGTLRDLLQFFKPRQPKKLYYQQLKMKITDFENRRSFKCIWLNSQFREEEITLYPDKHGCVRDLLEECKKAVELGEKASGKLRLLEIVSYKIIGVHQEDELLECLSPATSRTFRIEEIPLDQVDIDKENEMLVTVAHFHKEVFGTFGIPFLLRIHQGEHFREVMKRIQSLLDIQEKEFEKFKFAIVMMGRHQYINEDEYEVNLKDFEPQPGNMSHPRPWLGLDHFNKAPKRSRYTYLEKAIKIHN
pKd: −log10 of the molar value.

Field: example entries. Status: answers known.
CN1CCCn2nc(C(=O)Nc3nc4ccc(NS(=O)(=O)c5cc6ccccn6n5)cc4s3)cc2C1; 4.00 to 6.00
C[C@H](CC(=O)N1CCC(O)(Cn2cnc3cc(N(C)CCN(C)CCCNC(=O)OC(C)(C)C)ccc3c2=O)CC1)c1ccccc1; > 6.00
CC(=O)N1CCCn2nc(C(=O)Nc3nc4ccc(NS(=O)(=O)c5cccs5)cc4s3)cc2C1; 4.00 to 6.00
CCc1c(-c2ccc(C(=O)NCCCNC(=O)CCOCCNC(=O)OC(C)(C)C)nc2)cnc(N)c1-c1ccc(O)cc1; 4.00 to 6.00
C[C@H](CC(=O)N1CCC(O)(Cn2cnc3cc(C#CCN)ccc3c2=O)CC1)c1ccccc1; > 6.00

Sample `NCc1cc(Nc2nc3ccc(NS(=O)(=O)c4cccs4)cc3s2)ncn1` ; pKd observed: 4.00 to 6.00

Sample `Cc1cc(Cl)cc(-c2ccnc3cc(CN4C(=O)CCC4=O)sc23)c1OC1CCN(CCCCCCCNC(=O)OC(C)(C)C)CC1` ; pKd observed: > 6.00

Sample `CCc1c(-c2ccc(C(=O)NCCCNC(=O)CCCCCCNC(=O)OC(C)(C)C)nc2)cnc(N)c1-c1ccc(O)cc1` ; pKd observed: 4.00 to 6.00

Sample `CCc1c(-c2ccc3[nH]ncc3c2)cnc(C=O)c1-c1ccc(O)cc1` ; pKd observed: 4.00 to 6.00

Sample `CN1CCCn2nc(C(=O)Nc3nc4ccc(NS(=O)(=O)c5nnc[nH]5)cc4s3)cc2C1` ; pKd observed: 4.00 to 6.00

Sample `CCc1c(-c2ccc3[nH]ncc3c2)c(C#N)nc(CNC(=O)OC(C)(C)C)c1-c1ccc(O)cc1` ; pKd observed: 4.00 to 6.00

Sample `Cc1cc(Cl)cc(-c2ccnc3cc(CN4C(=O)CCC4=O)sc23)c1OC1CCN(C(=O)CCNC(=O)OC(C)(C)C)CC1` ; pKd observed: 4.00 to 6.00

Sample `CN1CCC(C(=O)Nc2nc3ccc(N(C)S(=O)(=O)c4cccs4)cc3s2)CC1` ; pKd observed: < 4.00

Sample `CN1CCC(C(=O)Nc2nc3ccc(NS(=O)(=O)c4cn5c(n4)CCC5)cc3s2)CC1` ; pKd observed: 4.00 to 6.00

Sample `C[C@H](CC(=O)N1CCC(O)(Cn2cnc(NCCN3CCN(CCN)CC3)cc2=O)CC1)c1ccccc1` ; pKd observed: > 6.00

Sample `CN1CCn2cnc(C(=O)Nc3nc4ccc(NS(=O)(=O)c5cccs5)cc4s3)c2C1` ; pKd observed: 4.00 to 6.00

Sample `CN1CCCn2nc(C(=O)Nc3nc4ccc(NS(=O)(=O)c5cccnc5)cc4s3)cc2C1` ; pKd observed: 4.00 to 6.00

Sample `CN1CCCn2nc(C(=O)Nc3nc4ccc(NS(=O)(=O)c5cccs5)cc4s3)cc2C1` ; pKd observed: 4.00 to 6.00

Sample `CCc1c(-c2ccc(C(=O)NCCCNC(=O)CCOCCOCCOCCOCCNC(=O)OC(C)(C)C)nc2)cnc(N)c1-c1ccc(O)cc1` ; pKd observed: 4.00 to 6.00

Sample CN1CCCn2nc(C(=O)Nc3nc4ccc(S(=O)(=O)NC5CCNC5)cc4s3)cc2C1 (centres unmarked) ; pKd observed: 4.00 to 6.00

Sample `C[C@H](CC(=O)N1CCC(O)(Cn2cnc3cc(NCCN(C)CCCNC(=O)OC(C)(C)C)ccc3c2=O)CC1)c1ccccc1` ; pKd observed: > 6.00

Sample `CN1CCC(C(=O)Nc2nc3ccc(NS(=O)(=O)c4ccc5c(c4)CC(=O)N5C)cc3s2)CC1` ; pKd observed: < 4.00

Sample `Cc1cc(Cl)cc(-c2ccnc3cc(CN4C(=O)CCC4=O)sc23)c1OC1CCN(C(=O)OC(C)(C)C)CC1` ; pKd observed: 4.00 to 6.00

Sample `CN1CCCn2nc(C(=O)Nc3nc4ccc(N(CCN)S(=O)(=O)c5cccs5)cc4s3)cc2C1` ; pKd observed: < 4.00

Sample `CCc1c(-c2ccc(C(=O)NCCCNC(=O)CCCCNC(=O)OC(C)(C)C)nc2)cnc(N)c1-c1ccc(O)cc1` ; pKd observed: 4.00 to 6.00

Sample `CCc1c(-c2ccc3[nH]ncc3c2)cnc(CNC(=O)OC(C)(C)C)c1-c1ccc(O)cc1` ; pKd observed: 4.00 to 6.00
